The reported measurements were obtained from the supplement of paper PMC10567573.

B1: POLD4 (parent)
chain: ITDSYPVVKRREGPAGHSKGELAP

- Variants of: B1
- methodNotes: protein stability index of a GFP-peptide fusion (GPS, HEK-293T) (PSI 1-6); higher = more stable;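 further: lentivirally expressed fusions sorted by FACS into six bins by GFP to DsRed ratio, PSI derived from sequencing read proportions per bin multiplied by bin number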
- testParameters: c terminus: a fixed tail appended
This section presents variants with their documented protein stability index values.

Solved cases (2 shown):
[[record]]
mutation = "E21Q"
measuredendpoint = "protein stability index"
observed = 4.12

[[record]]
mutation = "P6F"
measuredendpoint = "protein stability index"
observed = 3.52


*Q* Which protein stability index is listed for `A23T` ?
*A* 2.68
